Values compiled from paper PMC11149917.

- measurement_notes: Mouse blood and tissue PK (LC/MS-MS)
- Type: in vivo
- measurement_context: mouse, tumor, oral, 25 mg/kg, Model Validation Dataset; 25mg/kg_study6; 1 h; read-out: Tumor Concentration
property_label: concentration at 1 h (nM)

compound_string	reading
CCn1c(-c2cc(N3CCN(C)CC3)cnc2[C@H](C)OC)c2c3cc(ccc31)-c1csc(n1)C[C@H](NC(=O)[C@H]1C[C@@H]1C)C(=O)N1CCC[C@H](N1)C(=O)OCC(C)(C)C2	358

---

- measurement_notes: Mouse blood and tissue PK (LC/MS-MS)
- Assay type: in vivo
- measurement_context: BALB/c nude, mouse, tumor, oral, 0.3 mg/kg, Capan-2, study Capan-2 #3_PHA 2020, 0.3 mg/kg, 2h; read-out: RMC-6236 (nM) Tumor
property_label: concentration at 2 h (nM)

compound_string	property_label	reading
CCn1c(-c2cc(N3CCN(C)CC3)cnc2[C@H](C)OC)c2c3cc(ccc31)-c1csc(n1)C[C@H](NC(=O)[C@H]1C[C@@H]1C)C(=O)N1CCC[C@H](N1)C(=O)OCC(C)(C)C2	concentration at 2 h	15.2
